Test system: rat cortical neurons
assay-explanation: Hypoxia-induced apoptosis of rat cortical neurons
Assay type: cell-based, Wistar rat
test-context: Cortical neurone, 95% N2/5% CO2, Cell Death Detection ELISA (DNA fragmentation)
pIC50: −log10 of the molar value.
Provide the reported pIC50 of each item.

Inquiry: Record request: pIC50 value, item CC[C@@H](C(=O)N[C@@H](CC(=O)O)C(=O)COc1c(F)c(F)cc(F)c1F)n1cccc(NC(=O)C2CC2)c1=O [Compound 4]
Reply text: 5.00 to 6.00

Inquiry: Record request: pIC50 value, item CC[C@@H](C(=O)N[C@@H](CC(=O)O)C(=O)COc1c(F)c(F)cc(F)c1F)n1cc(C(F)(F)F)cc(NC(C)=O)c1=O [Compound 13]
Reply text: > 6.00

Inquiry: Record request: pIC50 value, item CCCNc1cccn([C@@H](CC)C(=O)N[C@@H](CC(=O)O)C(=O)COc2c(F)c(F)cc(F)c2F)c1=O [Compound 39]
Reply text: > 6.00

Inquiry: Record request: pIC50 value, item CC[C@@H](C(=O)N[C@@H](CC(=O)O)C(=O)COc1c(F)c(F)cc(F)c1F)n1cccc(NC(C)=O)c1=O [Compound 1]
Reply text: 5.00 to 6.00

Inquiry: Record request: pIC50 value, item CC[C@@H](C(=O)N[C@@H](CC(=O)O)C(=O)COc1c(F)c(F)cc(F)c1F)n1cccc(NC(=O)c2ccoc2)c1=O [Compound 8]
Reply text: 5.00 to 6.00

From: patent US7960415B2
